# System: c-Src;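 also: 11-residue human phosphosite peptides and single-mutation variants displayed on the E. coli surface, counted by deep sequencing, each peptide's frequency after selection divided by its frequency in the unselected input library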;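 also: frequency after pTyr selection over input frequency; kinase dosed for 20-30% of maximal phosphorylation in three min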
# test_protocol: phosphorylation enrichment, bacterial display (enrichment ratio); higher = better substrate or ligand; peptides without Tyr show the background
Overview of recorded phosphorylation enrichment for various sequences

sequence_string | phosphorylation enrichment
TRFDEYLEVTK [MAP1A_Y2217_H2214Y_YF] | 0.444
QDDFSYPSRQM [LDLR_Y847_G844D_YF] | 0.403
EKEQNYDLTEV [ECD_Y448] | 0.466
QRIYQYIRSRF [DYRK1B_Y273_Q275R] | 1.16
IHADIYRWFNI [MARS1_Y344] | 3.77
LAVNPYGPPDL | 0.611
SGVNKYSTAFG [GJB3_Y16] | 0.434
PRLLRYLQLDF [ASB10_Y457] | 0.616
VFPIDYFFPPQ [AR_Y552_L548F_YF] | 0.906
IKKLIYVYLVI [JAGN1_Y42_H44Y] | 0.475
SREALYNETDP [CACNA1A_Y794_M797T] | 0.722
FLGRDYLETLM [DUS3L_Y610_YF] | 0.428
CSSPTYRDCLQ [LARGE2_Y682_R677C] | 0.484
YSTDCYRVGGH [NTRK2_Y707_Y706C] | 0.415
QHVPDYRQNGY [PCDHGA1_Y890_V894G] | 0.514
HQNGMYGLHQD [SGSH_Y89] | 0.647
VGNPAYRSFSN [IL4R_Y497_A492V] | 0.376
FVHDNYVIWRT [CPS1_Y1450_R1453W] | 0.721
LMVFEYMRHGN [NTRK1_Y591_D596N] | 0.539
KGKLIYLLGDS [NXPE1_Y350] | 0.661
QKKPRYEIRWK [PDGFRB_Y562] | 0.605
DDPRRYQKYGY [OAS1_Y362] | 0.438
REVVNYVQKRN [RMI1_Y450] | 0.582
GFSDPYVKASL [SYT3_Y470] | 0.393
QFRFIYMAVQH [PTPN11_Y515_YF] | 1.97
EFTAGYNVKFD [GPX4_Y123_A120T] | 0.44
AKIDGYITSFR | 0.407
ETKKQYNSFTF [TMED3_Y85_D86N_YF] | 0.399
SQETYYRVSNM [ABCD1_Y181_Q178E] | 2.96
TNGFTYGSSHQ [MANEA_Y331] | 0.404
GVVVPYEPPEV [TP53_Y220_S215G] | 0.352
LSSISYVGCSL [ADGRD1_Y571] | 0.605
SVTCTYSPALS [TP53_Y126_N131S] | 0.719
CTTIHYNYMYN [TP53_Y234_C238Y] | 0.543
RTEAQYRFIYM [PTPN11_Y511_Q506R] | 0.754
RVVVPYEPPEV [TP53_Y220_S215R] | 0.36
CTTIHSNYMCN [TP53_Y234_Y234S] | 0.387
FQQLFYLLQTN [IQGAP2_Y890_YF] | 0.779
KLPFPYDDPFS [GPX2_Y127_YF] | 0.831
IYHLSYIHNCE [PDE6B_Y227_L228I] | 2.65
LAAAGYDVKKN [H1-3_Y72_E75K] | 0.324
SQKRKYIEIDS [SDAD1_Y580] | 0.507
LYSDHYSPSGR [TMPRSS12_Y23] | 2.15
NIEPVYLNMLL [ATR_Y317] | 6.42
KSPDSYQKILL [ATM_Y1415] | 0.429
VSTAVYKRFAS [BEST1_Y148_P152A] | 0.555
DVFRQYASLTG [GANAB_Y379] | 0.402
EQQNMYRLKVL [ABCC6_Y372] | 0.452
LDLPGYCLLRE [CCDC116_Y291_P293L] | 0.736
ALPVFYAATIA [SLC20A2_Y187] | 0.598
EIVYVYVKKRS [DNAI2_Y7] | 0.399
VDEERYDIEAK [TNNI3_Y112] | 0.483
RFVTRSIFNRE [HLA-DQB1_Y62_Y62S_YF] | 0.578
SSPVPYLSPET [TJP1_Y931] | 0.422
HNELFYEAAEH [VANGL1_Y345_E347A_YF] | 1.89
ALHHPYGCDVE [ABL2_Y80_R78H] | 0.669
LCHELYNTIRD [PBRM1_Y54_V49L] | 3.39
RLGNQHVNVMN [SLC3A1_Y461_Y461H] | 0.717
ANNEFYFRVCA | 0.412

All figures here come from the supplement of paper PMC10065799.
